B1: FBF1 (parent)
chain: FGDSPKAEKRQIGDQEGPRPARST

Variants of: B1
assay-comment: protein stability index of a GFP-peptide fusion (GPS, HEK-293T) (PSI 1-6); higher = more stable;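 further: lentivirally expressed fusions sorted by FACS into six bins by GFP to DsRed ratio, PSI derived from sequencing read proportions per bin multiplied by bin number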
run-conditions: c terminus: a fixed tail appended
measured-metric: protein stability index
// return just the number, without any unit appended

>  <residues>
FGDSPKAEKRQIGDQEGPRPARTT [S23T]

>  <measured-metric>
protein stability index

>  <val>
5.12

$$$$

IN: I would be grateful if you could share the reported protein stability index for FGDSMKAEKRQIGDQEGPRPARST [P5M] .
OUT: 4.88

IN: Look up protein stability index: FGDSPKAEKRQDGDQEGPRPARST [I12D]
OUT: 4.89
